Values were extracted from ChEMBL document CHEMBL5584255.

- Tested on: Staphylococcus aureus
- Measurement Description: Antibacterial activity against methicillin-resistant Staphylococcus aureus N315 by microbroth dilution method
- Assay type: functional
Readout Kind: MIC (µM)

| Substance Smiles | Tested Target | Readout Kind | Unit String | Observed |
| --- | --- | --- | --- | --- |
| C/C(Cn1cc(-c2csc(N)n2)c(=O)c2cc(F)c(Cl)cc21)=N\O | Staphylococcus aureus | MIC | µM | 350 |
| C/C(Cn1cc(-c2csc(C)n2)c(=O)c2cc(F)cc(F)c21)=N\NC(N)=S | Staphylococcus aureus | MIC | µM | 1260 |
| Nc1nc(-c2c[nH]c3c(F)cc(F)cc3c2=O)cs1 | Staphylococcus aureus | MIC | µM | 459 |
| Cc1nc(-c2c[nH]c3ccc(F)cc3c2=O)cs1 | Staphylococcus aureus | MIC | µM | 1970 |
| CC(=O)Cn1cc(-c2csc(N)n2)c(=O)c2cc(F)c(F)cc21 | Staphylococcus aureus | MIC | µM | 382 |
| C/C(Cn1cc(-c2csc(C)n2)c(=O)c2cccc(F)c21)=N\NC(N)=S | Staphylococcus aureus | MIC | µM | 1320 |
| C/C(Cn1cc(-c2csc(C)n2)c(=O)c2cc(F)ccc21)=N\NC(N)=S | Staphylococcus aureus | MIC | µM | 658 |
| C/C(Cn1cc(-c2csc(N)n2)c(=O)c2cc(F)c(Cl)cc21)=N\NC(N)=S | Staphylococcus aureus | MIC | µM | 38 |

----------
- Tested on: Staphylococcus aureus
- Measurement Description: Antibacterial activity against drug-resistant Staphylococcus aureus by microbroth dilution method
- Format: functional
Readout Kind: MIC (µM)

| Substance Smiles | Observed |
| --- | --- |
| C/C(Cn1cc(-c2csc(C)n2)c(=O)c2cc(F)c(Cl)cc21)=N\NC(N)=S | 605 |
| CC(=O)Cn1cc(-c2csc(N)n2)c(=O)c2cccc(F)c21 | 807 |
| Cc1nc(-c2c[nH]c3c(F)cccc3c2=O)cs1 | 1970 |
| Nc1nc(Cn2cc(-c3csc(N)n3)c(=O)c3cc(F)c(Cl)cc32)cs1 | 39 |

----------
- Tested on: Enterococcus faecalis
- Measurement Description: Antibacterial activity against drug-resistant Enterococcus faecalis by microbroth dilution method
- Assay type: functional
MIC values by entry
Readout Kind: MIC (µM)

| Substance Smiles | Unit String | Observed |
| --- | --- | --- |
| C/C(Cn1cc(-c2csc(C)n2)c(=O)c2cc(F)ccc21)=N\NC(N)=S | µM | 1320 |
| Cc1nc(-c2c[nH]c3ccc(F)cc3c2=O)cs1 | µM | 985 |
| C/C(Cn1cc(-c2csc(C)n2)c(=O)c2cc(F)c(Cl)cc21)=N\NC(N)=S | µM | 605 |
| C/C(Cn1cc(-c2csc(N)n2)c(=O)c2cc(F)ccc21)=N\NC(N)=S | µM | 328 |
| Nc1nc(-c2c[nH]c3c(F)cccc3c2=O)cs1 | µM | 490 |
| CC(=O)Cn1cc(-c2csc(C)n2)c(=O)c2cc(F)c(Cl)cc21 | µM | 366 |
| C/C(Cn1cc(-c2csc(N)n2)c(=O)c2cc(F)cc(F)c21)=N\NC(N)=S | µM | 1260 |
| C/C(Cn1cc(-c2csc(C)n2)c(=O)c2cccc(F)c21)=N\NC(N)=S | µM | 658 |
| Cc1nc(-c2c[nH]c3c(F)cc(F)cc3c2=O)cs1 | µM | 460 |
| C/C(Cn1cc(-c2csc(C)n2)c(=O)c2cc(F)cc(F)c21)=N\NC(N)=S | µM | 1260 |
| Cc1nc(-c2c[nH]c3c(F)cccc3c2=O)cs1 | µM | 985 |
| C/C(Cn1cc(-c2csc(N)n2)c(=O)c2cc(F)c(Cl)cc21)=N\NC(N)=S | µM | 302 |
| CC(=O)Cn1cc(-c2csc(N)n2)c(=O)c2cc(F)c(F)cc21 | µM | 382 |
| CCOC(=O)c1cn(C/C(C)=N/NC(N)=S)c2cc(F)c(F)cc2c1=O | µM | 335 |
| Nc1nc(-c2c[nH]c3ccc(F)cc3c2=O)cs1 | µM | 490 |
| C/C(Cn1cc(-c2csc(N)n2)c(=O)c2cc(F)c(F)cc21)=N\NC(N)=S | µM | 627 |
